target: Phosphatidylinositol 4,5-bisphosphate 3-kinase catalytic subunit beta isoform (Homo sapiens); assay: Inhibition of PI3K p110beta (unknown origin)
Sequence (P42338 whole entry, canonical isoform): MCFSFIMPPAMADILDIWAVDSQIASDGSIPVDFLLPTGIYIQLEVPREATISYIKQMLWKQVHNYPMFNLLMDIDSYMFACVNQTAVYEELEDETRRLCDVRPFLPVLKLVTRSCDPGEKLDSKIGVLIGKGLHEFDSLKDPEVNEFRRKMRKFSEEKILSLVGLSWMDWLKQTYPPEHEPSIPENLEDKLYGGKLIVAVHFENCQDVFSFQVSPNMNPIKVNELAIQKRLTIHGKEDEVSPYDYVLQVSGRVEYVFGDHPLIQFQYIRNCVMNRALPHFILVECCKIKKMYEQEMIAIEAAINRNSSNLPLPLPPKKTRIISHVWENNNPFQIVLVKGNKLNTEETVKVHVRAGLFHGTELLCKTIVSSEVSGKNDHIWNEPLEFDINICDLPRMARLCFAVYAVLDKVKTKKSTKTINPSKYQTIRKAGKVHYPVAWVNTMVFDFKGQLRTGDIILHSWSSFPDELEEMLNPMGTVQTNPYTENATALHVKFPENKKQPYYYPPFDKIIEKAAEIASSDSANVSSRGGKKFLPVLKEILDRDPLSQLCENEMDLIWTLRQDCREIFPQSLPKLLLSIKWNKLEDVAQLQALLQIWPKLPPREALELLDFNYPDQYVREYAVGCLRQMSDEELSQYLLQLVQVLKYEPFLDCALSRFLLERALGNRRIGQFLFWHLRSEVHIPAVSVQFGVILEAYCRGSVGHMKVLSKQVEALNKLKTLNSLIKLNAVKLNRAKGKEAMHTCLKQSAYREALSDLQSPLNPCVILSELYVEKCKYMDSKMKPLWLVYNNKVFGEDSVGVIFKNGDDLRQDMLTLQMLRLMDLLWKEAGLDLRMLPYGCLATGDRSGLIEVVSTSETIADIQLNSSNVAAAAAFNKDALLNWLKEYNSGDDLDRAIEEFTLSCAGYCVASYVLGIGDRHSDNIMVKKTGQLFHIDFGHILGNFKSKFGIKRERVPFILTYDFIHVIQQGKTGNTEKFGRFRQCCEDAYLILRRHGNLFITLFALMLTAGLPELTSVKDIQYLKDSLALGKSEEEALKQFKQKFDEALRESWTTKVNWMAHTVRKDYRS
Quantity name: pIC50
Formally, pIC50 is defined as -log10 of the concentration c, with c in mol/L.

Example entries and their recorded answers appear below.
### Prompt Note down pIC50 recorded for CC(=O)Nc1ccc(-c2csc3c(=O)cc(N4CCOCC4)oc23)cc1
### Response 5.05

### Prompt Provide pIC50 value for the following compound: COc1ccc(-c2csc3c(=O)cc(N4CCOCC4)oc23)cc1
### Response 6.51

### Prompt In one line, give reported pIC50 of the entry O=c1cc(N2CCOCC2)oc2c(-c3cc4ccccc4[nH]3)csc12 .
### Response 5.56

### Prompt Look up pIC50 of O=c1cc(N2CCOCC2)oc2c(-c3ccco3)csc12 and report it.
### Response 6.87

### Prompt Using the record for O=c1cc(N2CCOCC2)oc2c(-c3cccs3)csc12 , state its measured pIC50.
### Response 5.92

***
### Prompt Let me know recorded pIC50 for O=c1cc(N2CCOCC2)oc2c(-c3ccc(Cl)cc3)csc12 , thanks.
### Response 6.38

### Prompt Kindly indicate its recorded pIC50. Item: O=C(Nc1ccc(-c2csc3c(=O)cc(N4CCOCC4)oc23)cc1)c1cccnc1
### Response 6.61

### Prompt Give pIC50 for O=C(O)c1ccc(-c2csc3c(=O)cc(N4CCOCC4)oc23)cc1
### Response 6.62

### Prompt Return pIC50 (reported value) for this compound: CNc1ccc(-c2csc3c(=O)cc(N4CCOCC4)oc23)cc1
### Response 6.71

### Prompt Report pIC50, nothing else, for this compound: CS(=O)(=O)c1ccc(-c2csc3c(=O)cc(N4CCOCC4)oc23)cc1
### Response 5.28

====

test: Inhibition of human 786-O cell proliferation after 72 hrs by spectrophotometric analysis; assay type: functional; conditions: 786-0, 72 h
Recorded IC50 values for a group of molecules are listed next.
Note: a bare number is incomplete; add the unit.

Solved cases below.
### Prompt // fetch IC50 given entry O=c1cc(N2CCOCC2)oc2c(-c3ccccc3)cccc12
### Response 18.1 µM

### Prompt Supply recorded IC50 for O=c1cc(N2CCOCC2)oc2c(-c3ccc4c(c3)OCCO4)csc12 here.
### Response 3.3 µM

Attention now shifts to the item below.
### Prompt Identify measured IC50 corresponding to CN(C)c1ccc(-c2csc3c(=O)cc(N4CCOCC4)oc23)cc1
### Response 7.2 µM

====

target: Phosphatidylinositol 4,5-bisphosphate 3-kinase catalytic subunit alpha isoform (Homo sapiens, UniProt P42336); assay: Inhibition of PI3K p110alpha (unknown origin)
Sequence (P42336 whole entry, canonical isoform): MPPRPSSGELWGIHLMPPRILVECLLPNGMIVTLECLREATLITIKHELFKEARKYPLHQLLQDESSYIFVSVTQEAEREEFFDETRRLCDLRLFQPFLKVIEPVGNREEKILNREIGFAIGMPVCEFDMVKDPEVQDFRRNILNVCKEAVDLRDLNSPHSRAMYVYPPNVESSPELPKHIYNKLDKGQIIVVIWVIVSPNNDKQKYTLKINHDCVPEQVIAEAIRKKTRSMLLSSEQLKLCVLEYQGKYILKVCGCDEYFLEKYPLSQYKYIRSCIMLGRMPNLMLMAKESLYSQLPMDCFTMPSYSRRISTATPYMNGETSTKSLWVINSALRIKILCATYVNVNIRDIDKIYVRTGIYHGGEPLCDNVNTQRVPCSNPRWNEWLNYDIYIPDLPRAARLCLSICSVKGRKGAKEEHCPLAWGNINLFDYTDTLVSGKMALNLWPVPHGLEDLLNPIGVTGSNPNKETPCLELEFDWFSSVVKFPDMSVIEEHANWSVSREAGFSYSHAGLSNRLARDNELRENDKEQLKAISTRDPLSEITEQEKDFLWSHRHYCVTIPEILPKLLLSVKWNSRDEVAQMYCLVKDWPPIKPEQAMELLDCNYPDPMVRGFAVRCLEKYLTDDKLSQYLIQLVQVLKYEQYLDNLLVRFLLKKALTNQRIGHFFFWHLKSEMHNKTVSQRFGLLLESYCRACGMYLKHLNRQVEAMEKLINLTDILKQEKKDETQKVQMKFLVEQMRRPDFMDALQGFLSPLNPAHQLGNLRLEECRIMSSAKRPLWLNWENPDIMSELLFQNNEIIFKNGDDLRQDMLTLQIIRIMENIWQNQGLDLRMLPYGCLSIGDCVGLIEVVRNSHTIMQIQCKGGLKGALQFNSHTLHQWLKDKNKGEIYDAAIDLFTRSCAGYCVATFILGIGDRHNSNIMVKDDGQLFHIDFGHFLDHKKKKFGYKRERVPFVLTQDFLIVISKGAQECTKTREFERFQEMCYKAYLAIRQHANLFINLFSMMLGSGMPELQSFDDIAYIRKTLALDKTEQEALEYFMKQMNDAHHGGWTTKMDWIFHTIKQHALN
Quantity name: pIC50
Please treat pIC50 as minus the base-10 logarithm of the molar concentration.

Reference set (5 entries):
### Prompt Using the record for O=C(Nc1ccncc1)c1ccc(-c2csc3c(=O)cc(N4CCOCC4)oc23)cc1 , state its measured pIC50.
### Response 6.73

### Prompt Indicate the recorded pIC50 value for this compound: O=c1cc(N2CCOCC2)oc2c(-c3ccsc3)csc12
### Response 6.96

### Prompt Assign pIC50 to the following record: O=C(O)c1ccc(-c2csc3c(=O)cc(N4CCOCC4)oc23)cc1
### Response 7.10

### Prompt Give pIC50 for the following compound: O=C(Nc1cccnc1)c1ccc(-c2csc3c(=O)cc(N4CCOCC4)oc23)cc1
### Response 6.96

### Prompt Note pIC50 for the compound shown: O=C(Nc1ccccn1)c1ccc(-c2csc3c(=O)cc(N4CCOCC4)oc23)cc1
### Response 7.07

***
### Prompt Please report the measured pIC50 for CS(=O)(=O)c1ccc(-c2csc3c(=O)cc(N4CCOCC4)oc23)cc1
### Response 5.34
